- target-or-test-system: Plasmodium falciparum protein kinase 6 (PK6, PF3D7_1337100)
- assay-procedure: PfPK6 kinase inhibitors, biochemical, TCAMS library (AID 1159586)
- test-parameters: recombinant PfPK6, Kinase-Glo ATP depletion luminescence
pIC50: −log10 of the molar value.
measurement-kind: pIC50

In the examples that follow, each entry is paired with its recorded pIC50.
| smiles-structure | target-or-test-system | pIC50 |
| --- | --- | --- |
| CS(=O)(=O)Cc1ccc(Nc2nccc(-c3c(-c4cccc(C(=O)Nc5c(F)cccc5F)c4)nn4ccccc34)n2)cc1 | Plasmodium falciparum protein kinase 6 (PK6, PF3D7_1337100) | 6.98 |
| O=C(Nc1cccc(-c2nn3ccccc3c2-c2ccnc(Nc3ccc(NCCCN4CCOCC4)c(F)c3)n2)c1)c1c(F)cccc1F | Plasmodium falciparum protein kinase 6 (PK6, PF3D7_1337100) | 6.24 |

A. CN(c1ccc(NC(=O)Nc2cc(C(C)(C)C)on2)cc1)c1ccnc(NCCN2CCOCC2)n1
B. Cc1cc(Nc2ncc(Cl)c(Nc3ccccc3C(N)=O)n2)n[nH]1
C. Cc1cc(Nc2ncc(C#N)c(Nc3ccccc3C(N)=O)n2)ccc1N1CCN(C)CC1
# input Please list these molecules in decreasing order of pIC50. # the answer lists labels in the order requested
# output C, B, A
(C: 7.27, B: 6.89, A: 6.43)
